testedTarget: Rhesus PDE2A3 (Macaca mulatta, UniProt B3VTJ2)
Sequence (B3VTJ2 1-941): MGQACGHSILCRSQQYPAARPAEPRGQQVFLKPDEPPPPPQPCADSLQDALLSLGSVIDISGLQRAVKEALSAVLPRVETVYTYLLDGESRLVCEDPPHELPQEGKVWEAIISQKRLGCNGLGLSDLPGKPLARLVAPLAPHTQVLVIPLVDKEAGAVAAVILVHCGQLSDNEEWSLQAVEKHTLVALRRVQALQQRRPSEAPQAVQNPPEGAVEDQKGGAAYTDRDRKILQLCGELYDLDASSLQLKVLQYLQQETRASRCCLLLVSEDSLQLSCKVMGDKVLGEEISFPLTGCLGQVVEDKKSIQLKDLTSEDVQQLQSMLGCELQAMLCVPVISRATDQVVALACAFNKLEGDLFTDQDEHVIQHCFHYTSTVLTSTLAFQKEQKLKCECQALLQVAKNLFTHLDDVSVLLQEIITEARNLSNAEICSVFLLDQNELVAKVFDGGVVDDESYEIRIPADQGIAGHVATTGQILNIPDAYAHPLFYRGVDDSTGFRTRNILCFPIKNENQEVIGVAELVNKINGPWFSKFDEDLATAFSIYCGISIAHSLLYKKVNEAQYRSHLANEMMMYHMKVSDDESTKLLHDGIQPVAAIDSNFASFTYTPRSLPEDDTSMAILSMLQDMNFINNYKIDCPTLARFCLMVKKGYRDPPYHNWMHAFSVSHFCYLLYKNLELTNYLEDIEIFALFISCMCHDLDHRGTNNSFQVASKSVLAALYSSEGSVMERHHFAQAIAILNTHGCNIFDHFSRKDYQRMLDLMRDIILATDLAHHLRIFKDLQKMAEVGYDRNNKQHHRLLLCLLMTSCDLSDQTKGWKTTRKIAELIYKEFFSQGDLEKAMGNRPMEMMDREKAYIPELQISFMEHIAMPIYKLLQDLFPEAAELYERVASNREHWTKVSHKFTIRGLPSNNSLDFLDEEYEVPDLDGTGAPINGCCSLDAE
protocolDetails: PDE2 fluorescence polarization (IMAP FP) inhibition assay, rhesus enzyme
Format: biochemical, rhesus macaque
particulars: Rhesus PDE2, Lab A, at 1 uM
readout: Rhesus PDE2 % inh. at 1 uM - Lab A (% inh.)
The reply should be a number in % inh., with the unit left off.

### Prompt I would be grateful if you could share the reported Rhesus PDE2 % inh. at 1 uM - Lab A for C[C@@H](NC(=O)c1cc(=O)[nH]c(-c2ccccc2)n1)c1cccc2ccccc12 .
### Response 42

### Prompt I would be grateful if you could share the reported Rhesus PDE2 % inh. at 1 uM - Lab A for O=C(NC(c1ccccc1)c1ccc(C(F)(F)F)cc1)c1cc(=O)[nH]c(-c2ccccc2)n1 (stereo not shown) .
### Response 45

### Prompt I would be grateful if you could share the reported Rhesus PDE2 % inh. at 1 uM - Lab A for O=C(NCc1c(Cl)cc(C(F)(F)F)cc1Cl)c1cc(=O)[nH]c(-c2ccccc2)n1 .
### Response 9

### Prompt I would be grateful if you could share the reported Rhesus PDE2 % inh. at 1 uM - Lab A for C[C@@H](NC(=O)c1cc(=O)[nH]c(-c2ccccc2)n1)c1ccc(C(F)(F)F)c2ccccc12 .
### Response 41

###

testedTarget: UniProt:B3VTJ2
protocolDetails: PDE2 fluorescence polarization (IMAP FP) inhibition assay, rhesus enzyme
Type: biochemical, rhesus macaque
particulars: Rhesus PDE2, Lab A; read-out: Rhesus PDE2 Ki (nM) - Lab A
Can you tell me Ki for the items I'm about to list?
The reply should be a number in nM, with the unit left off.

### Prompt I would be grateful if you could share the reported Ki for O=C(NC1(c2ccc(OC(F)(F)F)cc2)CCC1)c1cc(=O)[nH]c(C2CC2)n1 .
### Response 88

### Prompt I would be grateful if you could share the reported Ki for CC(NC(=O)c1cc(=O)[nH]c(-c2ccccc2)n1)c1ccc(-n2cccn2)cc1 (centres unmarked) .
### Response 21

### Prompt I would be grateful if you could share the reported Ki for COCc1nc(C(=O)N[C@@H](c2ccc(OC(F)(F)F)cc2)C2CC2)cc(=O)[nH]1 .
### Response 70

### Prompt I would be grateful if you could share the reported Ki for O=C(NC1(c2ccc(OC(F)(F)F)cc2)CCC1)c1cc(=O)[nH]c(-c2ncccn2)n1 .
### Response 942

### Prompt I would be grateful if you could share the reported Ki for C[C@@H](NC(=O)c1cc(=O)[nH]c(-c2ncccn2)n1)c1ccc(OC(F)(F)F)c(F)c1 .
### Response 5.5

### Prompt I would be grateful if you could share the reported Ki for CC(NC(=O)c1cc(=O)[nH]c(-c2ccccc2)n1)c1ccccc1C(F)(F)F (centres unmarked) .
### Response 3420

### Prompt I would be grateful if you could share the reported Ki for CC[C@@H](NC(=O)c1cc(=O)[nH]c(-c2ccccc2)n1)c1ccc(SC(F)(F)F)cc1 .
### Response 3.3

### Prompt I would be grateful if you could share the reported Ki for Cc1nc(C(=O)NC(C)(C)c2ccc(C(F)(F)F)cc2)cc(=O)[nH]1 .
### Response 42

###

testedTarget: Rhesus PDE2A3 (Macaca mulatta, UniProt B3VTJ2)
protocolDetails: PDE2 fluorescence polarization (IMAP FP) inhibition assay, rhesus enzyme
Type: biochemical, rhesus macaque
particulars: Rhesus PDE2, Lab A; read-out: Rhesus PDE2 Ki (nM) - Lab A
I'd appreciate it if you marked entries 1 when Ki is lower than 20 nM and 0 when it is not.

### Prompt Regarding Cc1nc(C(=O)NC(C#N)c2ccc(C(F)(F)F)cc2)cc(=O)[nH]1 (stereo not shown) , kindly confirm whether its Ki is beneath 20 nM.
### Response 0

### Prompt Regarding Cc1nc(C(=O)NC(C)c2cccc(-c3ccc(F)cc3)c2)cc(=O)[nH]1 (stereo not shown) , kindly confirm whether its Ki is beneath 20 nM.
### Response 0

### Prompt Regarding Cc1nc(C(=O)NC(C(=O)O)c2ccc(C(F)(F)F)cc2)cc(=O)[nH]1 (racemic) [Example 326] , kindly confirm whether its Ki is beneath 20 nM.
### Response 0

### Prompt Regarding C[C@@H](NC(=O)c1cc(=O)[nH]c(-c2ccccc2)n1)c1ccc(OC(F)(F)F)c(F)c1 , kindly confirm whether its Ki is beneath 20 nM.
### Response 1

### Prompt Regarding CC[C@@H](NC(=O)c1cc(=O)[nH]c(-c2ccccc2)n1)c1ccc(OC(F)(F)F)c(F)c1 , kindly confirm whether its Ki is beneath 20 nM.
### Response 1

### Prompt Regarding Cc1nc(C(=O)N[C@H](C)c2ccc(S(=O)(=O)C(F)(F)F)cc2)cc(=O)[nH]1 , kindly confirm whether its Ki is beneath 20 nM.
### Response 0

### Prompt Regarding CC(C)[C@@H](NC(=O)c1cc(=O)[nH]c(-c2ncccn2)n1)c1ccc(C(F)(F)F)c(F)c1 , kindly confirm whether its Ki is beneath 20 nM.
### Response 1

### Prompt Regarding COc1cc(C(F)(F)F)ccc1[C@@H](C)NC(=O)c1cc(=O)[nH]c(-c2ncccn2)n1 , kindly confirm whether its Ki is beneath 20 nM.
### Response 0

### Prompt Regarding CC[C@@H](NC(=O)c1cc(=O)[nH]c(C2CC2)n1)c1ccc(C(F)(F)F)c(F)c1 , kindly confirm whether its Ki is beneath 20 nM.
### Response 1

### Prompt Regarding Cc1nc(C(=O)NC(C(=O)N(C)C)c2ccc(C(F)(F)F)cc2)cc(=O)[nH]1 (stereo not shown) , kindly confirm whether its Ki is beneath 20 nM.
### Response 0

### Prompt Regarding COc1ccc([C@@H](C)NC(=O)c2cc(=O)[nH]c(-c3ccccc3)n2)cc1 , kindly confirm whether its Ki is beneath 20 nM.
### Response 0

### Prompt Regarding C[C@@H](NC(=O)c1cc(=O)[nH]c(-c2ccccc2)n1)c1ccc(CC(F)(F)F)cc1 , kindly confirm whether its Ki is beneath 20 nM.
### Response 1

### Prompt Regarding C[C@@H](NC(=O)c1cc(=O)[nH]c(-c2ccccc2)n1)c1ccc(OC(F)(F)F)cc1 , kindly confirm whether its Ki is beneath 20 nM.
### Response 1

### Prompt Regarding C[C@@H](NC(=O)c1cc(=O)[nH]c(C2CC2)n1)c1ccc(OC(F)(F)F)cc1F , kindly confirm whether its Ki is beneath 20 nM.
### Response 0

### Prompt Regarding Cc1nc(C(=O)N[C@H](c2ccc(C(F)(F)F)cc2)C(C)C)cc(=O)[nH]1 , kindly confirm whether its Ki is beneath 20 nM.
### Response 0

###

testedTarget: Rhesus PDE2A3 (Macaca mulatta, UniProt B3VTJ2)
protocolDetails: PDE2 fluorescence polarization (IMAP FP) inhibition assay, rhesus enzyme
Format: biochemical, rhesus macaque
particulars: Rhesus PDE2, Lab A; read-out: Rhesus PDE2 Ki (nM) - Lab A
Can you tell me Ki for the items I'm about to list?
The reply should be a number in nM, with the unit left off.

### Prompt I would be grateful if you could share the reported Ki for COc1ccc([C@@H](C)NC(=O)c2cc(=O)[nH]c(-c3ncccn3)n2)c(OC)c1 [Example 88] .
### Response 2360

### Prompt I would be grateful if you could share the reported Ki for COc1cc(OC(F)(F)F)ccc1C(C)NC(=O)c1cc(=O)[nH]c(-c2ccccc2)n1 (stereo not shown) [Example 187] .
### Response 4.5

### Prompt I would be grateful if you could share the reported Ki for C[C@@H](NC(=O)c1cc(=O)[nH]c(C2CC2)n1)c1ccc(C(F)(F)F)cc1F [Example 237] .
### Response 61

### Prompt I would be grateful if you could share the reported Ki for CCC(NC(=O)c1cc(=O)[nH]c(-c2ccccc2)n1)c1ccc(C(C)(C)C)cc1 (stereo not shown) [Example 163] .
### Response 61

### Prompt I would be grateful if you could share the reported Ki for CC[C@@H](NC(=O)c1cc(=O)[nH]c(-c2ncccn2)n1)c1ccc(SC(F)(F)F)c(F)c1 [Example 263] .
### Response 1.5

### Prompt I would be grateful if you could share the reported Ki for COc1cc(OC(F)(F)F)ccc1C(C)NC(=O)c1cc(=O)[nH]c(C2CC2)n1 (stereo not shown) [Example 230] .
### Response 25

### Prompt I would be grateful if you could share the reported Ki for CC(C)[C@@H](NC(=O)c1cc(=O)[nH]c(C2CC2)n1)c1ccc(SC(F)(F)F)c(F)c1 [Example 244] .
### Response 0.99

### Prompt I would be grateful if you could share the reported Ki for Cc1nc(C(=O)N[C@H](C)c2ccc(OC(F)(F)F)cc2)cc(=O)[nH]1 [Example 9] .
### Response 21

### Prompt I would be grateful if you could share the reported Ki for C[C@@H](NC(=O)c1cc(=O)[nH]c(C2CC2)n1)c1ccc(C(F)(F)F)cc1 [Example 11] .
### Response 21

### Prompt I would be grateful if you could share the reported Ki for Cc1nc(C(=O)NC(C)c2ccc(C3CC3)cc2)cc(=O)[nH]1 (stereo not shown) [Example 42] .
### Response 72

### Prompt I would be grateful if you could share the reported Ki for C[C@@H](NC(=O)c1cc(=O)[nH]c(-c2ccccc2)n1)c1ccc(C2CC2)cc1 [Example 423] .
### Response 3

### Prompt I would be grateful if you could share the reported Ki for COCc1nc(C(=O)N[C@H](C)c2ccc(OC(F)(F)F)cc2)cc(=O)[nH]1 [Example 113] .
### Response 84

### Prompt I would be grateful if you could share the reported Ki for CC(C)(C)[C@@H](NC(=O)c1cc(=O)[nH]c(C2CC2)n1)c1ccc(C(F)(F)F)cc1 [Example 262] .
### Response 0.65

### Prompt I would be grateful if you could share the reported Ki for COc1cc(C(C)NC(=O)c2cc(=O)[nH]c(-c3ncccn3)n2)ccc1C(F)(F)F (stereo not shown) [Example 104] .
### Response 524

### Prompt I would be grateful if you could share the reported Ki for Cc1nc(C(=O)N[C@@H](c2ccc(OC(F)(F)F)cc2)C(C)C)cc(=O)[nH]1 [Example 32] .
### Response 11

### Prompt I would be grateful if you could share the reported Ki for C[C@@H](NC(=O)c1cc(=O)[nH]c(-c2ncccn2)n1)c1cc(F)c(C(F)(F)F)c(F)c1 [Example 108] .
### Response 25
